target: 5-HT7 receptor (Homo sapiens); construct: purchased PerkinElmer; test: Radioligand binding assay, serotoninergic 5-HT7 receptors; conditions: binding assay result in %, Table 5a;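 also: test compound at 1 µM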
Sequence (P34969 whole entry): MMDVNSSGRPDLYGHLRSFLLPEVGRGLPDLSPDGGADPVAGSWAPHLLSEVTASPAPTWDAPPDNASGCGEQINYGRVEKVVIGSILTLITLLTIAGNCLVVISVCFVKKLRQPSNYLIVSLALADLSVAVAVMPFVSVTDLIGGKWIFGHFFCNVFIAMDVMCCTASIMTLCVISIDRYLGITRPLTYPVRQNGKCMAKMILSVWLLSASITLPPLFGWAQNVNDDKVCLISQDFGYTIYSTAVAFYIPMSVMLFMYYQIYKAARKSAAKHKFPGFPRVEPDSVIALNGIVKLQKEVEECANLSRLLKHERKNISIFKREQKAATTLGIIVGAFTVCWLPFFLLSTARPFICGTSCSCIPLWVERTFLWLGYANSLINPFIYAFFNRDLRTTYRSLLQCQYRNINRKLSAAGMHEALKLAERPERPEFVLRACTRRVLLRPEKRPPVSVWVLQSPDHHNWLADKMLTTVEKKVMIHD
quantity measured: inhibition at 1 µM (%)
One number for each entry, in %.

In [3]: df
Out[3]:
                                   compound  unit_text  reported_value
0  CC(C)(C)c1ccc(S(=O)(=O)NCC2CN(CCOc3cccc4c3OCCO4)C2)cc1 [Compound 181]          %              92
1  Cc1c(S(=O)(=O)N[C@@H]2CCN(CCCc3noc4cc(F)ccc34)C2)sc2ccc(Cl)cc12 [Compound 204]          %              87

Parameter requested: inhibition at 1 µM. Apply to each item below.
1. Cc1ccc(S(=O)(=O)NCC2CCN(CCOc3cccc4c3OCCO4)C2)cc1 (stereo not shown) [Compound 291]
2. O=S(=O)(N[C@@H]1CCN(CCCc2noc3cc(F)ccc23)C1)c1cc2ccccc2s1 [Compound 196]
3. Cc1ccc(S(=O)(=O)NC2CCN(CCCc3noc4cc(F)ccc34)C2)cc1 (stereo not shown) [Compound 209]
4. CC(C)(C)c1ccc(S(=O)(=O)NCC2CN(CCCc3noc4cc(F)ccc34)C2)cc1 [Compound 141]
5. Cc1cc(S(=O)(=O)N[C@@H]2CCN(CCCc3noc4cc(F)ccc34)C2)c(C)s1 [Compound 222]
6. Cn1ccc2c(S(=O)(=O)NCC3CCN(CCCc4noc5cc(F)ccc45)C3)cccc21 (stereo not shown) [Compound 259]

### Response
1. 80
2. 101
3. 90
4. 80
5. 102
6. 91

Hi team, please reply with inhibition at 1 µM for each item in this list.
1. O=S(=O)(NCC1CN(CCOc2cccc3c2OCCO3)C1)c1ccc(Cl)s1 [Compound 192]
2. Cc1cccc(S(=O)(=O)NC2CCN(CCCc3c[nH]c4ccc(F)cc34)C2)c1 (stereo not shown) [Compound 78]
3. O=S(=O)(NCC1CCN(CCOc2cccc3ccccc23)C1)c1csc2ccccc12 (stereo not shown) [Compound 276]
4. O=S(=O)(NCC1CCN(CCCc2noc3cc(F)ccc23)C1)c1cccc(O)c1 (stereo not shown) [Compound 254]
5. O=S(=O)(N[C@@H]1CCN(CCCc2noc3cc(F)ccc23)C1)c1csc2ccccc12 [Compound 224]
6. Cn1ccc2c(S(=O)(=O)NC3CCN(CCCc4noc5cc(F)ccc45)CC3)cccc21 [Compound 329]
7. Cc1c(S(=O)(=O)N[C@@H]2CCN(CCCc3noc4cc(F)ccc34)C2)sc2ccc(F)cc12 [Compound 202]
8. Cc1c(S(=O)(=O)NCC2CN(CCCc3noc4cc(F)ccc34)C2)sc2ccc(F)cc12 [Compound 130]

### Response
1. 97
2. 89
3. 82
4. 102
5. 103
6. 97
7. 98
8. 98

###

Please go through the items and note down their inhibition at 1 µM.
biological target: 5-HT1A receptor (rat hippocampus) (Rattus norvegicus); construct: hippocampus; from tissue; host or cells: rat hippocampus; assay: Radioligand binding assay, serotoninergic 5-HT1A receptors; settings: binding assay result in %, Table 5a;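 also: test compound at 1 µM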
Sequence (P19327 whole entry): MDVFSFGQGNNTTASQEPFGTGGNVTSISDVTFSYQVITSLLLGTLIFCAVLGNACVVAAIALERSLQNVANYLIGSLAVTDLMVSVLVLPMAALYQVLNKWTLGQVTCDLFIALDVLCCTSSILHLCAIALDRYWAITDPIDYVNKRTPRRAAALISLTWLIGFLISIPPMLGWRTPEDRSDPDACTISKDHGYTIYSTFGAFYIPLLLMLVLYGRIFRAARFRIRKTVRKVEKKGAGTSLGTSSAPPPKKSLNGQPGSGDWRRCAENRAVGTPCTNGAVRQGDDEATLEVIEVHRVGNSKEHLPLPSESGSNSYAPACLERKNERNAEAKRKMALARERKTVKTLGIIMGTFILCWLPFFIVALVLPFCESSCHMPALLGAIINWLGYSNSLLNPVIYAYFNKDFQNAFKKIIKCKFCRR
Numbers only, in %.

Below are worked cases with known answers.
In [3]: df
Out[3]:
                                   compound  unit_text  reported_value
0  Cc1ccc2sc(S(=O)(=O)N[C@@H]3CCN(CCCc4noc5cc(F)ccc45)C3)cc2c1          %              27
1  O=S(=O)(NCC1CCN(CCOc2cccc3ccccc23)C1)c1cc2ccc(Cl)cc2s1 (centres unmarked)          %              60
2  O=S(=O)(NC1CCN(CCOc2nsc3ccccc23)C1)c1ccc2ccccc2c1 (centres unmarked)          %              99
3  CC1(C)Cc2cccc(OCCN3CCC(NS(=O)(=O)c4cccc(O)c4)C3)c2O1 (centres unmarked)          %             100

Note: attention shifts to another entry.
### Prompt Given the entry O=S(=O)(N[C@H]1CCN(CCCc2noc3cc(F)ccc23)C1)c1ccc2cc(Cl)ccc2c1 , report its measured inhibition at 1 µM.
### Response 32
